The measured values listed here are drawn from paper PMC10780165.

- System tested: eqBChE (equine serum BChE) (Equus caballus)
- Construct: BChE (equine serum BChE (eqBChE)); purchased Sigma-Aldrich (Shanghai, PRC); host or cells: equine serum
- Sequence (P81908 whole entry): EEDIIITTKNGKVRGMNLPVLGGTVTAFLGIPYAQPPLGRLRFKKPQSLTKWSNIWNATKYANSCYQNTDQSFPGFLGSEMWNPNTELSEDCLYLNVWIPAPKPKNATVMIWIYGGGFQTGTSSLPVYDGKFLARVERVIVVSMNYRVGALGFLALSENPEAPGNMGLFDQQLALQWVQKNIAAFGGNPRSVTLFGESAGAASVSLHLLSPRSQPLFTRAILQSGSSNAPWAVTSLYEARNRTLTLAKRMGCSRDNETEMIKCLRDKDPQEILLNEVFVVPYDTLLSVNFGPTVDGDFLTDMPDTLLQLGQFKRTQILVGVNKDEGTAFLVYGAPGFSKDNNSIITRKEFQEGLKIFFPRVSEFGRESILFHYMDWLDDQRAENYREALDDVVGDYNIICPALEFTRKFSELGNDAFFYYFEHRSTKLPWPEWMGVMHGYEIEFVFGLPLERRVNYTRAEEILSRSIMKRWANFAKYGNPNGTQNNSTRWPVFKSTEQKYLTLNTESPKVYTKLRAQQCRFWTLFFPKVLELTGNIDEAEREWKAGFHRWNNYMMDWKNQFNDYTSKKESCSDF
- Method notes: Modified Ellman's assay, IC50 for eqBChE
- Type: biochemical
- Conditions used: as printed in nM in abstract and text; read-out: IC50(BChE)
Value kind: IC50 (nM)
Response body: numeric value in nM, unit text excluded.

Qu. Entry CCN(C)C(=O)Oc1cccc(C(O)CN2CCCCC2)c1 (stereo not shown) needs its IC50 filled in; supply it.
Ans. 78

* * *

# pIC50 per entry
- System tested: elAChE (electric eel AChE) (Electrophorus electricus)
- Construct: purchased Sigma-Aldrich (Shanghai, PRC)
- Sequence (O42275 24-633): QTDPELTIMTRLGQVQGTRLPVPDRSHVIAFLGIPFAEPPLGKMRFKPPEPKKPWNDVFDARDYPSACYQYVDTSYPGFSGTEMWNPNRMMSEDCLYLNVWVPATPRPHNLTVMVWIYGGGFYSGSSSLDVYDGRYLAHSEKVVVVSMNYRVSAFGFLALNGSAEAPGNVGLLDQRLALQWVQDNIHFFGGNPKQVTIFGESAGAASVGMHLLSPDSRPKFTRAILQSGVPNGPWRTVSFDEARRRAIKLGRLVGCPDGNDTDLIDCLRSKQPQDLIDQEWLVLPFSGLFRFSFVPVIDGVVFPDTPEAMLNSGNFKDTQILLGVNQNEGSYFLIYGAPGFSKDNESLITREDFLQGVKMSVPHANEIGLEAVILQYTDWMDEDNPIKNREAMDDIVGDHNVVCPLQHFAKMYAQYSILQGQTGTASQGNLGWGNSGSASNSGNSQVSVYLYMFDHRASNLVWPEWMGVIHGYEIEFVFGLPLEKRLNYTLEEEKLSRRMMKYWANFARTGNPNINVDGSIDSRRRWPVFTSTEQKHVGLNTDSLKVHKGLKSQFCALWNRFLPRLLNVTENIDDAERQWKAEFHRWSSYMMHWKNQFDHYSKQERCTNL
- Method notes: biochemical
- Conditions used: after pre-incubation with the enzyme for 60 min, 37 °C, pH 8; read-out: elAChE IC50 Mean ± SD
pIC50: −log10 of the molar value.

Qu. Kindly indicate its recorded pIC50. Item: CCN(C)C(=O)Oc1cccc(C(O)CNC(C)(C)c2ccccc2)c1 (stereo not drawn) [MTR-11]
Ans. < 4.00

Qu. Please look at this compound and report its pIC50: CCN(C)C(=O)Oc1cccc(C(O)CNC2CCCCC2)c1 (stereo not drawn) [MTR-4]
Ans. 4.10

Qu. Give recorded pIC50. CCN(C)C(=O)Oc1ccc(C(O)CNC(C)(C)CC)cc1 (stereo not drawn) [MTR-14]
Ans. < 4.00
